- Test system: K. pneumoniae FADDI-KP032
- ASSAY INFO: In vivo efficacy in mouse blood infection model (neutropenic Swiss mice)
- CONDITION LABEL: compound, free base 4 mg/kg intravenously 2 h after inoculation, blood at 4 h
- Description: P. aeruginosa ATCC 27853, A. baumannii ATCC 19606 and K. pneumoniae FADDI-KP032 were subcultured on nutrient agar plates. One colony of each bacterial strain was dispersed in 10-mL CAMHB and incubated overnight. […] The exact injection volume for each bacterial suspension was calculated based upon the OD value of the bacterial suspension and the desired inoculum for each isolate. […] The agar plates were incubated at 37° C. overnight. […] The log10 CFU/mL of blood in each mouse was calculated. […]
Starred links: 1 amine or outer side, 2 acyl side, 3 side chain; linkers in the order of their positions; H or OH if unused. Positions of bridges follow the written chain, without caps; N, C: chain ends. Non-standard residues stand in square brackets, D forms with d. Residues, ends and D or L forms follow the SMILES beside them. ξ: configuration not given here. *: point of attachment. X2 = CC(C)C[C@@H](CC(=O)[C@H](CCN)N[*:1])C(=O)[*:2]; Benzoyl(3,5-Cl2) = O=C(c1cc(Cl)cc(Cl)c1)*; Benzoyl(3-CF3) = O=C(c1cccc(C(F)(F)F)c1)*; Thr(3ξ) = CC(O)[C@H](N)C(=O)O; dNle = CCCC[C@@H](N)C(=O)O; X1 = CC[C@H](C)CCCCC(=O)*; Octanoyl = CCCCCCCC(=O)*; Dab = NCC[C@H](N)C(=O)O; Abu = CC[C@H](N)C(=O)O; Dap = NC[C@H](N)C(=O)O
Below is a list of entries, each paired with its recorded Δ log (Treated-Control at 4 h) value.
Answer in log10 CFU/mL, number only, no unit symbol.

Consider the worked cases shown below.
MOLECULE	ASSAY ENDPOINT	QUANTITATIVE READOUT
CCCCCCCC(=O)N[C@@H](CCN)C(=O)N[C@H](C(=O)N[C@H](CO)C(=O)N[C@H]1CCNC(=O)[C@H](C(C)O)NC(=O)[C@H](CCN)NC(=O)[C@H](CCN)NC(=O)[C@H](C(C)O)NC(=O)[C@@H](CC(C)C)CC(=O)[C@H](CCN)NC1=O)C(C)O (stereo partly shown) [Compound 1] (Octanoyl-[Dab][Thr(3ξ)][dS][Dab][X2][Thr(3ξ)][Dab][Dab][Thr(3ξ)]; lactam 4-C)	Δ log (Treated-Control at 4 h)	−3.49
CCCCCCCC(=O)N[C@@H](CCN)C(=O)N[C@H](C(=O)N[C@@H](CN)C(=O)N[C@H]1CCNC(=O)[C@H]([C@@H](C)O)NC(=O)[C@H](CCN)NC(=O)[C@H](CCN)NC(=O)[C@H]([C@@H](C)O)NC(=O)[C@@H](CC(C)C)NC(=O)[C@H](CCN)NC1=O)[C@@H](C)O [Compound 33] (Octanoyl-[Dab]T[Dap][Dab][Dab][dL]T[Dab][Dab]T; lactam 4-C)	Δ log (Treated-Control at 4 h)	−2.80
CCCCCCCC(=O)N[C@@H](CCN)C(=O)N[C@H](C(=O)N[C@@H](CN)C(=O)N[C@H]1CCNC(=O)[C@H]([C@@H](C)O)NC(=O)[C@H](CCN)NC(=O)[C@H](CCN)NC(=O)[C@H](CC)NC(=O)[C@@H](CC(C)C)NC(=O)[C@H](CCN)NC1=O)[C@@H](C)O [Compound 46] (Octanoyl-[Dab]T[Dap][Dab][Dab][dL][Abu][Dab][Dab]T; lactam 4-C)	Δ log (Treated-Control at 4 h)	−2.93
CC[C@H](C)CCCCC(=O)N[C@@H](CCN)C(=O)N[C@H](C(=O)N[C@H](CO)C(=O)N[C@H]1CCNC(=O)[C@H]([C@@H](C)O)NC(=O)[C@H](CCN)NC(=O)[C@H](CCN)NC(=O)[C@H]([C@@H](C)O)NC(=O)[C@@H](CC(C)C)NC(=O)[C@H](CCN)NC1=O)[C@@H](C)O [Compound 150, polymyxin D1] (X1-[Dab]T[dS][Dab][Dab][dL]T[Dab][Dab]T; lactam 4-C)	Δ log (Treated-Control at 4 h)	−3.77
C[C@@H]1NC(=O)[C@@H](Cc2ccccc2)NC(=O)[C@H](CCN)NC(=O)[C@@H](NC(=O)[C@H](CN)NC(=O)[C@@H](NC(=O)[C@H](CCN)NC(=O)c2cccc(C(F)(F)F)c2)[C@@H](C)O)CCNC(=O)[C@H]([C@@H](C)O)NC(=O)[C@H](CCN)NC(=O)[C@H](CCN)NC1=O [Compound 126] ({Benzoyl(3-CF3)}-[Dab]T[Dap][Dab][Dab][dF]A[Dab][Dab]T; lactam 4-C)	Δ log (Treated-Control at 4 h)	−2.68
CC[C@@H]1NC(=O)[C@@H](CC(C)C)NC(=O)[C@H](CCN)NC(=O)[C@@H](NC(=O)[C@H](CN)NC(=O)[C@@H](NC(=O)[C@H](CCN)NC(=O)c2cc(Cl)cc(Cl)c2)[C@@H](C)O)CCNC(=O)[C@H]([C@@H](C)O)NC(=O)[C@H](CCN)NC(=O)[C@H](CCN)NC1=O [Compound 96] ({Benzoyl(3,5-Cl2)}-[Dab]T[Dap][Dab][Dab][dL][Abu][Dab][Dab]T; lactam 4-C)	Δ log (Treated-Control at 4 h)	−2.75

QUERY: For the molecule CC[C@H](C)CCCCC(=O)N[C@@H](CCN)C(=O)N[C@H](C(=O)N[C@@H](CCN)C(=O)N[C@H]1CCNC(=O)[C@H]([C@@H](C)O)NC(=O)[C@H](CCN)NC(=O)[C@H](CCN)NC(=O)[C@H]([C@@H](C)O)NC(=O)[C@@H](CC(C)C)NC(=O)[C@H](CCN)NC1=O)[C@@H](C)O [Compound 152, polymyxin M1] (X1-[Dab]T[Dab][Dab][Dab][dL]T[Dab][Dab]T; lactam 4-C) , what Δ log (Treated-Control at 4 h) is on record?
RESULT: −3.86

QUERY: Can you handle CCCCCCCC(=O)N[C@@H](CCN)C(=O)N[C@H](C(=O)N[C@@H](CCN)C(=O)N[C@H]1CCNC(=O)[C@H]([C@@H](C)O)NC(=O)[C@H](CCN)NC(=O)[C@H](CCN)NC(=O)[C@H](C(C)C)NC(=O)[C@@H](CC(C)C)NC(=O)[C@H](CCN)NC1=O)[C@@H](C)O [Compound 23] (Octanoyl-[Dab]T[Dab][Dab][Dab][dL]V[Dab][Dab]T; lactam 4-C) next?
RESULT: −3.88

QUERY: Another molecule: CCCCCCCC(=O)N[C@@H](CCN)C(=O)N[C@H](C(=O)N[C@@H](CN)C(=O)N[C@H]1CCNC(=O)[C@H]([C@@H](C)O)NC(=O)[C@H](CCN)NC(=O)[C@H](CCN)NC(=O)[C@H](C)NC(=O)[C@@H](CC(C)C)NC(=O)[C@H](CCN)NC1=O)[C@@H](C)O [Compound 35] (Octanoyl-[Dab]T[Dap][Dab][Dab][dL]A[Dab][Dab]T; lactam 4-C)
RESULT: −3.12

QUERY: Continue with CCCCCCCC(=O)N[C@@H](CCN)C(=O)N[C@H](C(=O)N[C@H](CO)C(=O)N[C@H]1CCNC(=O)[C@H]([C@@H](C)O)NC(=O)[C@H](CCN)NC(=O)[C@H](CCN)NC(=O)[C@H]([C@@H](C)O)NC(=O)[C@@H](CCCC)NC(=O)[C@H](CCN)NC1=O)[C@@H](C)O [Compound 7] (Octanoyl-[Dab]T[dS][Dab][Dab][dNle]T[Dab][Dab]T; lactam 4-C)
RESULT: −3.39

FYI, the data here is from patent USRE48335E1.
